target: CYP3A4 (Homo sapiens, UniProt P08684); test: In vitro inhibition of cDNA expressed human CYP3A4 (testosterone substrate, radio-HPLC); details: human
Sequence (P08684 whole entry): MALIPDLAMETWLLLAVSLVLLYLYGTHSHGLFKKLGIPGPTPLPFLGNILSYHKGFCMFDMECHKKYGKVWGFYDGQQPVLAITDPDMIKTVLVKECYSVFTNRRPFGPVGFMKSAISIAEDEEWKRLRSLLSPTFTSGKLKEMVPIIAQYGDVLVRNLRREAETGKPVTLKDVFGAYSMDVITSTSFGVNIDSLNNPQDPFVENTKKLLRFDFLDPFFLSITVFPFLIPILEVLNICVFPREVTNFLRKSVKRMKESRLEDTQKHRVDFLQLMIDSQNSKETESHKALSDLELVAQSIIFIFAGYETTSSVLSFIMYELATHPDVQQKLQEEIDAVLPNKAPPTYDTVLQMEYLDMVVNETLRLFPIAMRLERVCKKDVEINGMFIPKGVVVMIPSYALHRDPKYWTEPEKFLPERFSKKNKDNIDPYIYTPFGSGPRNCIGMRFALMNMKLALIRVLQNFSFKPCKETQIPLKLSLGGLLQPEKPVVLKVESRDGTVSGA
measurement_name: inhibition at 90 min, 100 µM

1) C[C@]12CC[C@@H]3c4ccc(OC(=O)N(CCCl)CCCl)cc4CC[C@H]3[C@@H]1CC[C@@H]2O | ~80%
